experiment: shake flask on a mixture of 185; loss from the water phase only; LC-QTOF peak areas; conditions: room
observable: log partition butyl acetate / HPLC water, unbuffered, traces of methanol / DMSO (log10)
# unit: log10 | format: bare number

Query O=C(Nc1ccccc1-c1ccc(Cl)cc1)c1cccnc1Cl yields log partition butyl acetate / HPLC water, unbuffered, traces of methanol / DMSO of 2.85

Query Cc1cc2c3c(c1)C(c1ccccc1)=N[C@@H](NC(=O)c1ccncc1)C(=O)N3CC2 yields log partition butyl acetate / HPLC water, unbuffered, traces of methanol / DMSO of 2.569

Query Cc1oncc1C(=O)Nc1ccc(C(F)(F)F)cc1 yields log partition butyl acetate / HPLC water, unbuffered, traces of methanol / DMSO of 3.034

Query Oc1c(Cl)cc(Cl)c(Cl)c1Cc1c(O)c(Cl)cc(Cl)c1Cl yields log partition butyl acetate / HPLC water, unbuffered, traces of methanol / DMSO of 2.622

Query CN(C1CCCCC1)S(=O)(=O)c1ccccc1N yields log partition butyl acetate / HPLC water, unbuffered, traces of methanol / DMSO of 0.2235

----------
assay: shake flask on a mixture of 185; loss from the water phase only; LC-Orbitrap peak areas; conditions: room
Listed here: items and their measured log partition dichloromethane / HPLC water, unbuffered, traces of methanol / DMSO.
# unit: log10 | format: bare number

>>> df
                                   compound  unitspec  experimentalresult
0                  COC(=O)c1sccc1S(N)(=O)=O     log10               1.105
1          C#CC(C)(C)NC(=O)c1cc(Cl)cc(Cl)c1     log10                   3
2                           CCCCNC(=S)NCCCC     log10              0.6427
3  CCOc1ccc2c(c1)C(C)CC(C)(C)N2 (stereo not shown)     log10             0.03099
4                   CC(=O)Oc1ccc(C(C)=O)cc1     log10              0.1616
5  Nc1nc(Cl)nc2c1ncn2[C@H]1C[C@H](O)[C@@H](CO)O1     log10             -0.9957
6  CN1C(=O)CCS(=O)(=O)C1c1ccc(Cl)cc1 (stereo not shown)     log10               5.525
7         NC(=O)N/N=C/c1ccc([N+](=O)[O-])o1     log10              0.3361
8                  Nc1ccc(/N=N/c2ccccc2)cc1     log10               1.434
9         Cc1ccc([N+](=O)[O-])cc1S(=O)(=O)O     log10                 2.4

// below: log partition dichloromethane / HPLC water, unbuffered, traces of methanol / DMSO requested for another compound
Query O=P(OC(CCl)CCl)(OC(CCl)CCl)OC(CCl)CCl yields log partition dichloromethane / HPLC water, unbuffered, traces of methanol / DMSO of 0.1218

----------
assay: shake flask on a mixture of 185; loss from the water phase only; LC-QTOF peak areas; conditions: room
observable: log partition toluene / HPLC water, unbuffered, traces of methanol / DMSO (log10)
# unit: log10 | format: bare number

                     molecule  experimentalresult
0  c1ccc2[nH]c(-c3cscn3)nc2c1              0.2898

Query NC(=O)Nc1ccc(Cl)cc1 yields log partition toluene / HPLC water, unbuffered, traces of methanol / DMSO of -0.9053

Query CCCCNS(=O)(=O)c1ccc(C)cc1 yields log partition toluene / HPLC water, unbuffered, traces of methanol / DMSO of 1.679

Query Cc1oncc1C(=O)Nc1ccc(C(F)(F)F)cc1 yields log partition toluene / HPLC water, unbuffered, traces of methanol / DMSO of 2.381

Query c1coc(-c2nc3ccccc3[nH]2)c1 yields log partition toluene / HPLC water, unbuffered, traces of methanol / DMSO of 0.6693

Query CC(C)N1C(=O)c2ccccc2NS1(=O)=O yields log partition toluene / HPLC water, unbuffered, traces of methanol / DMSO of -0.5708

Query O=C(Nc1ccccc1-c1ccc(Cl)cc1)c1cccnc1Cl yields log partition toluene / HPLC water, unbuffered, traces of methanol / DMSO of 2.524

Query OCCN(CCO)c1ccccc1 yields log partition toluene / HPLC water, unbuffered, traces of methanol / DMSO of -1.086

Query CCOc1ccc2[nH]cc(C(=O)NCc3ccccc3)c(=O)c2n1 yields log partition toluene / HPLC water, unbuffered, traces of methanol / DMSO of -0.4984

Query CN/C(=N/[N+](=O)[O-])NCC1CCOC1 (stereo not drawn) yields log partition toluene / HPLC water, unbuffered, traces of methanol / DMSO of -1.236

Query CCNC(=O)C1CC(C)CCC1C(C)C (stereo not drawn) yields log partition toluene / HPLC water, unbuffered, traces of methanol / DMSO of 1.717

----------
assay: shake flask on a mixture of 185; loss from the water phase only; LC-QTOF peak areas; conditions: room
observable: log partition toluene / HPLC water, unbuffered, traces of methanol / DMSO (log10)
# unit: log10 | format: bare number

In [3]: df
Out[3]:
                                   compound  experimentalresult
0  COC(=O)C(C)N(C(=O)c1ccco1)c1c(C)cccc1C (stereo not shown)               2.516
1  CCc1nn(C)c(C(=O)NCc2ccc(C(C)(C)C)cc2)c1Cl               1.518

Query Cc1cc(C)nc(NS(=O)(=O)c2ccc(N)cc2)n1 yields log partition toluene / HPLC water, unbuffered, traces of methanol / DMSO of -1.085

Query C#CC(C)(C)NC(=O)c1cc(Cl)cc(Cl)c1 yields log partition toluene / HPLC water, unbuffered, traces of methanol / DMSO of 2.121

----------
test: shake flask on a mixture of 185; loss from the water phase only; LC-Orbitrap peak areas; conditions: room
Listed here: items and their measured log partition cyclohexane / HPLC water, unbuffered, traces of methanol / DMSO.
# unit: log10 | format: bare number

                                   molecule  experimentalresult
0  CCCCC(O)(Cn1cncn1)c1ccc(Cl)cc1Cl (stereo not drawn)               3.351
1  CCCCC(CC)C(=O)OCCOCCOCCOCCOC(=O)C(CC)CCCC (stereo not drawn)              -2.242
2   Cn1cnc([N+](=O)[O-])c1Sc1ncnc2nc[nH]c12              -1.394
3       Cc1cc(C)nc(NS(=O)(=O)c2ccc(N)cc2)n1             -0.9043
4  Cc1cc(SCc2sc(-c3ccc(C(F)(F)F)c(F)c3)nc2C)ccc1OCC(=O)O               -1.06

// below: log partition cyclohexane / HPLC water, unbuffered, traces of methanol / DMSO requested for another molecule
Query CCCOC(=O)c1ccc(C(=O)OCCC)nc1 yields log partition cyclohexane / HPLC water, unbuffered, traces of methanol / DMSO of 1.195

----------
assay: shake flask on a mixture of 185; loss from the water phase only; LC-QTOF peak areas; conditions: room
Listed here: items and their measured log partition chloroform / HPLC water, unbuffered, traces of methanol / DMSO.
# unit: log10 | format: bare number

Worked cases, answers included:
>>> df
                                givensmiles  experimentalresult
0  CCc1ccc(C(=O)NN(C(=O)c2cc(C)cc(C)c2)C(C)(C)C)cc1               1.756
1  C[C@H](CCC(=O)O)[C@H]1CC[C@H]2[C@@H]3CC[C@@H]4C[C@H](O)CC[C@]4(C)[C@H]3CC[C@]12C              0.5205
2                 CCCCNS(=O)(=O)c1ccc(C)cc1               1.664
3                        O=S(=O)(O)C(F)(F)F               1.635
4  Nc1cc2c3c(c1)C(c1ccccc1)=N[C@@H](NC(=O)c1cccnc1)C(=O)N3CC2               1.953

Query CO/C=C(/C(=O)OC)c1ccccc1Oc1cc(Oc2ccccc2C#N)ncn1 yields log partition chloroform / HPLC water, unbuffered, traces of methanol / DMSO of 2.817

Query Cc1ccc([N+](=O)[O-])cc1S(=O)(=O)O yields log partition chloroform / HPLC water, unbuffered, traces of methanol / DMSO of 2.843

----------
experiment: shake flask on a mixture of 185; loss from the water phase only; LC-Orbitrap peak areas; details: room
Threshold check on log partition n-undecane / HPLC water, unbuffered, traces of methanol / DMSO: strictly below 1 log10 is class 1; on or above 1 log10 is class 0.

// below: answered compounds
>>> print(df.to_string())
                                   compound  grouplabel
0  CCCN(CCC)c1c([N+](=O)[O-])cc(C(C)C)cc1[N+](=O)[O-]     class 1
1                  Nc1ccc(/N=N/c2ccccc2)cc1     class 0
2                         Cc1cc(O)cc(C)c1Cl     class 1
3  OC(c1ccc(F)cc1)(c1cncnc1)c1ccccc1Cl (centres unmarked)     class 0

Now look at this entry.
**Query** Lab note: confirm whether the reported log partition n-undecane / HPLC water, unbuffered, traces of methanol / DMSO for this compound is below 1 log10, equality not counting. compound: CCCCCCOc1cc(C)c(O)c(C)c1C
**Result** class 1

All figures here come from paper PMC10569036.
